Attribution: the supplement of paper PMC10567573

Documented protein stability index across a set of variants
B1: RAB11A (parent)
chain: AVPTDEARAFAEKNGLSFIETSAL

- Variants of: B1
- protocol_text: protein stability index of a GFP-peptide fusion (GPS, HEK-293T) (PSI 1-6); higher = more stable;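 also: lentivirally expressed fusions sorted by FACS into six bins by GFP to DsRed ratio, PSI derived from sequencing read proportions per bin multiplied by bin number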
- stated_conditions: c terminus: a fixed tail appended
Just the number, please, no unit after it.

# annotated cases, reported protein stability index shown
S17R: 3.08
F10Q: 3.08

Challenge: Need protein stability index, item `S17Y`
Response given: 2.97

Challenge: Fill blank: measured protein stability index of the variant `F10T` is ____.
Response given: 2.91

Challenge: Consider the variant `E20S` and give its measured protein stability index.
Response given: 3.01
